Would you kindly list GI50 for each of these molecules?
# Test system: MOLT-4
# assay_text: NCI tumour cell line growth inhibition, 48 h
Activity calls are given as the source filed them. No stated cut-off is given here; in the data, active = GI50 up to about 1.1 µM and inactive = higher.

Requested read-out GI50, target or system MOLT-4, entry CC(=O)OC12C(C)=C(C)C(=O)N1c1ccccc1N2C(C)=O (configuration not stated)
> 100 µM (inactive)

Requested read-out GI50, target or system MOLT-4, entry C/N=N/N(C)C(=O)NC
> 100 µM (inactive)

Requested read-out GI50, target or system MOLT-4, entry C=CCN1/C(=C2\SC(=S)N(c3ccc(C)cc3)C2=O)Sc2c1ncn(C)c2=O
> 100 µM (inactive)

Requested read-out GI50, target or system MOLT-4, entry N#CC(C(=O)C(=O)Nc1c(Cl)cccc1Cl)c1ccccc1 (configuration not stated)
> 10 µM (inactive)

Requested read-out GI50, target or system MOLT-4, entry CCOC(=O)C1=C(C)NC(C)=C(C(=O)OCC)C1c1ccc(Cl)cc1
6.1 µM (inactive)

Requested read-out GI50, target or system MOLT-4, entry CCCCC/C=C1\CCC(CN2CCOCC2)C1=O (configuration not stated)
2.43 µM (inactive)

Requested read-out GI50, target or system MOLT-4, entry CCCCI(O)OS(=O)(=O)c1ccc(C)cc1
> 100 µM (inactive)

Requested read-out GI50, target or system MOLT-4, entry CCCN(CCC)c1c([N+](=O)[O-])cc(C(=O)N(C)C)cc1[N+](=O)[O-]
41 µM (inactive)

Requested read-out GI50, target or system MOLT-4, entry O=C1c2cc3ncsc3cc2C(=O)c2c(O)ccc(O)c21
> 100 µM (inactive)

Requested read-out GI50, target or system MOLT-4, entry CC(=O)C(N1CCCCC1)C(O)(C(F)(F)F)C(F)(F)F (configuration not stated)
24 µM (inactive)

Requested read-out GI50, target or system MOLT-4, entry Cc1ccc2nc3sc(=O)sc3nc2c1
15.2 µM (inactive)

Requested read-out GI50, target or system MOLT-4, entry COc1cccc2cc(C(N)=O)c(=N)oc12
> 100 µM (inactive)
